pIC50: −log10 of the molar value.
Please find below pIC50 data on Heat shock protein HSP 90-alpha (Homo sapiens, UniProt P07900) compiled from the literature.
assay.metric: pIC50

{"compound": "COc1cccc(C(=O)N[C@H]2C[C@H]3CC[C@@H](C2)N3c2ccc(C(=O)NCCCN3CCOCC3)cn2)c1C", "data.value": "6.00 to 6.30"}
{"compound": "CCCCn1nnnc1-c1cc(-c2cccc(C(=O)N3CCN(CC)CC3)c2)c(O)cc1O", "data.value": "< 4.30"}
{"compound": "NC(=O)c1ccc(C(=O)N[C@H]2C[C@H]3CC[C@@H](C2)N3c2ccc(C(=O)C3CC3)cn2)cc1NC1CCCC1", "data.value": "> 6.30"}
{"compound": "Cc1cc(C(=O)N[C@H]2C[C@H]3CC[C@@H](C2)N3c2ccc(C(=O)N[C@H]3CCN(C(C)C)C3)cn2)c(C)cc1C(N)=O", "data.value": "> 6.30"}
{"compound": "CCC(CC)Nc1cc(C(=O)NC2CC3CCC(C2)N3c2ccc(C(=O)N[C@@H]3CCN(CC)C3)cn2)ccc1C(N)=O (some centres unmarked)", "data.value": "> 6.30"}
{"compound": "CCNC(=O)c1noc(-c2cc(C(C)C)c(O)cc2O)c1NC(=O)CCN1CCN(C)CC1", "data.value": "6.00 to 7.00"}
{"compound": "COc1c(C)cnc(CN2c3nc(N)ncc3N(CCc3ccncc3)C(=O)[C@H]2C)c1C", "data.value": 6.25}
{"compound": "Cc1cc(C(N)=O)c(NC(C(C)C)C(F)(F)F)cc1C(=O)N[C@H]1C[C@H]2CC[C@@H](C1)N2c1ccc(C(=O)C2CC2)cn1 (some centres unmarked)", "data.value": "> 6.30"}

* * *

pIC50: −log10 of the molar value.
Compiled literature pIC50, tested on Heat shock protein HSP 90-alpha (Homo sapiens, UniProt P07900).

{"compound": "COCCCn1nnnc1-c1cc(-c2cc(C(C)C)ccc2OC)c(O)cc1O", "target.under.test": "Heat shock protein HSP 90-alpha (Homo sapiens, UniProt P07900)", "pIC50": "5.00 to 6.00"}
{"compound": "CCNC(=O)c1noc(-c2cc(Cl)c(O)cc2O)c1NC(=O)c1ccc(OC)cc1", "target.under.test": "Heat shock protein HSP 90-alpha (Homo sapiens, UniProt P07900)", "pIC50": "6.00 to 7.00"}
{"compound": "COc1cccc(C(=O)N[C@H]2C[C@H]3CC[C@@H](C2)N3c2ccc(C(=O)NCCCN3CCN(C)CC3)cn2)c1C", "target.under.test": "Heat shock protein HSP 90-alpha (Homo sapiens, UniProt P07900)", "pIC50": "6.00 to 6.30"}
{"compound": "COc1cccc(C(=O)N[C@H]2C[C@H]3CC[C@@H](C2)N3c2ccc(C(=O)NC3CCC3)cn2)c1C", "target.under.test": "Heat shock protein HSP 90-alpha (Homo sapiens, UniProt P07900)", "pIC50": "6.00 to 6.30"}
{"compound": "NC(=O)c1ccc(C(=O)N[C@H]2C[C@H]3CC[C@@H](C2)N3c2ccc(C(=O)NCc3ccccc3)cn2)cc1", "target.under.test": "Heat shock protein HSP 90-alpha (Homo sapiens, UniProt P07900)", "pIC50": "> 6.30"}
{"compound": "COc1cccc(C(=O)N[C@H]2C[C@H]3CC[C@@H](C2)N3c2ccc(C(=O)Nc3ccccc3C)cn2)c1C", "target.under.test": "Heat shock protein HSP 90-alpha (Homo sapiens, UniProt P07900)", "pIC50": "5.00 to 5.70"}
{"compound": "N=C(N)c1ccc(C(=O)N[C@H]2C[C@H]3CC[C@@H](C2)N3c2ccc(C(=O)NCc3ccccc3)cn2)cc1", "target.under.test": "Heat shock protein HSP 90-alpha (Homo sapiens, UniProt P07900)", "pIC50": "5.00 to 5.70"}
{"compound": "CC[C@H](NC(=O)c1ccc(N2C3CCC2CC(NC(=O)c2cccc(OC)c2C)C3)nc1)c1ccccc1 (stereo partly drawn)", "target.under.test": "Heat shock protein HSP 90-alpha (Homo sapiens, UniProt P07900)", "pIC50": "6.00 to 6.30"}
{"compound": "COc1c(C)cnc(CN2c3nc(N)ncc3N(CCCN(C)C)C(=O)[C@H]2C)c1C", "target.under.test": "Heat shock protein HSP 90-alpha (Homo sapiens, UniProt P07900)", "pIC50": 5.31}
{"compound": "CCN(CC)CCCn1c(Sc2cc3c(cc2SC)OCO3)nc(C(N)=O)c1N", "target.under.test": "Heat shock protein HSP 90-alpha (Homo sapiens, UniProt P07900)", "pIC50": 5.70}
{"compound": "COc1c(C)cnc(CN2c3nc(N)ncc3N(CCN3CCCC3=O)C(=O)[C@H]2C)c1C", "target.under.test": "Heat shock protein HSP 90-alpha (Homo sapiens, UniProt P07900)", "pIC50": 5.34}
{"compound": "CCNC(=O)c1noc(-c2cc(Cl)c(O)cc2O)c1-c1ccc(OCCCCC(=O)NO)cc1", "target.under.test": "Heat shock protein HSP 90-alpha (Homo sapiens, UniProt P07900)", "pIC50": "≥ 7.00"}
{"compound": "CCN(CC)CCCNC(=O)c1ccc(N2[C@@H]3CC[C@H]2C[C@@H](NC(=O)c2cccc(OC)c2C)C3)nc1", "target.under.test": "Heat shock protein HSP 90-alpha (Homo sapiens, UniProt P07900)", "pIC50": "6.00 to 6.30"}
{"compound": "CCN(CC)CCCn1c(Sc2cc3c(cc2Br)OCO3)nc(C(N)=O)c1N", "target.under.test": "Heat shock protein HSP 90-alpha (Homo sapiens, UniProt P07900)", "pIC50": 5.32}
{"compound": "NC(=O)c1ccc(C(=O)N[C@H]2C[C@H]3CC[C@@H](C2)N3c2ccc(C(=O)C3CCCC3)cn2)cc1NCC1CC1", "target.under.test": "Heat shock protein HSP 90-alpha (Homo sapiens, UniProt P07900)", "pIC50": "5.00 to 5.70"}
{"compound": "CNC(=O)[C@@H](NC(=O)c1ccc(N2C3CCC2CC(NC(=O)c2cccc(OC)c2C)C3)nc1)c1ccc(OC)cc1 (stereo partly drawn)", "target.under.test": "Heat shock protein HSP 90-alpha (Homo sapiens, UniProt P07900)", "pIC50": "6.00 to 6.30"}
{"compound": "Cc1cc(C(N)=O)c(N[C@H](C)C(C)C)cc1C(=O)NC1CC2CCC(C1)N2c1ccc(C(=O)C2CC2)cn1 (stereo partly drawn)", "target.under.test": "Heat shock protein HSP 90-alpha (Homo sapiens, UniProt P07900)", "pIC50": "> 6.30"}
{"compound": "CCC(CC)Nc1cc(C(=O)N[C@H]2C[C@H]3CC[C@@H](C2)N3c2ccc(C(=O)CCN3CCCCC3)cn2)ccc1C(N)=O", "target.under.test": "Heat shock protein HSP 90-alpha (Homo sapiens, UniProt P07900)", "pIC50": "> 6.30"}
{"compound": "COc1cccc(C(=O)N[C@H]2C[C@H]3CC[C@@H](C2)N3c2ccc(C(=O)Nc3ccc(N4CCN(C)CC4)cc3)cn2)c1C", "target.under.test": "Heat shock protein HSP 90-alpha (Homo sapiens, UniProt P07900)", "pIC50": "> 6.30"}
{"compound": "CC(C)N1CC[C@@H](NC(=O)c2ccc(N3C4CCC3CC(NC(=O)c3ccc(C(N)=O)c(N[C@H]5CC[C@H](O)CC5)c3)C4)nc2)C1 (stereo partly drawn)", "target.under.test": "Heat shock protein HSP 90-alpha (Homo sapiens, UniProt P07900)", "pIC50": "> 6.30"}
{"compound": "CC[C@@H](C)Nc1c(C(N)=O)cc(Br)c(C(=O)NC2CC3CCC(C2)N3c2ccc(C(=O)C3CC3)cn2)c1Cl (stereo partly drawn)", "target.under.test": "Heat shock protein HSP 90-alpha (Homo sapiens, UniProt P07900)", "pIC50": "> 6.30"}
